Origin of the recorded values: patent US9260461B2

Experiment: Solubility of the purified prodrugs versus parent compound acacetin
Assay type: physicochemical
Details: aqueous buffer; comparison with Tris solution pH=7.0; read-out: solubility (parent compound, compared with Prodrug A in Tris solution)
READOUT_LABEL: solubility

*Q* Recorded solubility for COc1ccc(-c2cc(=O)c3c(O)cc(O)cc3o2)cc1 [acacetin] , please?
*A* < 0.2 µg/mL
